target: PI3-Kα (Mus musculus (Mouse), UniProt P42337)
Sequence (P42337 whole entry): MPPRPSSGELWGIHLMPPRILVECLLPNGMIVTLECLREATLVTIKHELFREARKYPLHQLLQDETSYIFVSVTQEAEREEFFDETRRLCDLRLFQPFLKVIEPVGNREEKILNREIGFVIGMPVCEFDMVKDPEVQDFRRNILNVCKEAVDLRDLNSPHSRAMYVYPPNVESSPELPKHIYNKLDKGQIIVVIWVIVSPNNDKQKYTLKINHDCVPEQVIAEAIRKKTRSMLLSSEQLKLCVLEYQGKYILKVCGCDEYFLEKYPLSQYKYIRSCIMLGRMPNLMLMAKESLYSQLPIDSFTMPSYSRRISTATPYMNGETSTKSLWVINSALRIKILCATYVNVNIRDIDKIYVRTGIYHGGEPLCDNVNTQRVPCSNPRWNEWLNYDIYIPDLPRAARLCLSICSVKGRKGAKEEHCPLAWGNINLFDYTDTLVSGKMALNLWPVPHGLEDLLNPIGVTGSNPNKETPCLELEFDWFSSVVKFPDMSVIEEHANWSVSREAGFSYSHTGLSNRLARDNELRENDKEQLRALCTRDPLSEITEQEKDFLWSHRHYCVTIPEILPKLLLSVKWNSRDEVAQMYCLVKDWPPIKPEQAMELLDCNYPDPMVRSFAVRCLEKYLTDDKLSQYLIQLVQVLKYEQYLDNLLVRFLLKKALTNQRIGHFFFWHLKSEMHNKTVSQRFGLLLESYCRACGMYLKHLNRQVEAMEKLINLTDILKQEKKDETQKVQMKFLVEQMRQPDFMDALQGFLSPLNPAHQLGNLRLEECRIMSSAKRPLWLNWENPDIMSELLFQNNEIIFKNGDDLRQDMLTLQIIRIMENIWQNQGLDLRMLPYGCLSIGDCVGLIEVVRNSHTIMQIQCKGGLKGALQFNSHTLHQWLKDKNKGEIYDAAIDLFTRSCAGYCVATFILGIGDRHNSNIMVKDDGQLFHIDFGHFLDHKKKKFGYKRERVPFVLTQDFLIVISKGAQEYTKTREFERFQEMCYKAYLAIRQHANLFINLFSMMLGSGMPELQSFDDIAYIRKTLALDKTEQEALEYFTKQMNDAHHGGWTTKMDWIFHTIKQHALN
Sequence (P26450 whole entry partner): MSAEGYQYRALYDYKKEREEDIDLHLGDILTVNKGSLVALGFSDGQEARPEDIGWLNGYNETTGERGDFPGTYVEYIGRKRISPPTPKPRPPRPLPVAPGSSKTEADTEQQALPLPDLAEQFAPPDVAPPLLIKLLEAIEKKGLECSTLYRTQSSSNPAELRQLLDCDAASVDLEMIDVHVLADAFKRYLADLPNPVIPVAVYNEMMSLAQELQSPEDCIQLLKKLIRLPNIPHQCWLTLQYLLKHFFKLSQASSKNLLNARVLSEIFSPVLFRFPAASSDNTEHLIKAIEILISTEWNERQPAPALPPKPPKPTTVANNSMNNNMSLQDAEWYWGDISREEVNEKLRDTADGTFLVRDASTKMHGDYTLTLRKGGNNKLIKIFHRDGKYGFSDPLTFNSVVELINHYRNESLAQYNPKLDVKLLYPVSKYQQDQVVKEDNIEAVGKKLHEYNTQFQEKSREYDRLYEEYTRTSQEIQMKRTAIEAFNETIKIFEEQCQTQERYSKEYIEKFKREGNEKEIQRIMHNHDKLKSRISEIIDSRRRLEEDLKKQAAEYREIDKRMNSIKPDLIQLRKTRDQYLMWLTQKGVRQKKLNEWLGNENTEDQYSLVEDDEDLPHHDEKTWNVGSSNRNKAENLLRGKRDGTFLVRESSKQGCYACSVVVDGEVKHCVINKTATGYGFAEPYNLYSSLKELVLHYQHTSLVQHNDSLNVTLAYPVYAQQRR
reported metric: IC50 (nM)

Some solved entries appear below for comparison.
Cc1nc(N)nc2c1cc(-c1cnn(CCO)c1)c(=O)n2C1CCCC1 [Compound 106] | 45
CO[C@H]1CC[C@H](n2c(=O)c(Br)cc3c(C)nc(N)nc32)CC1 [Compound 178] | 31
CCNc1nc(C)c2cc(-c3cnc(OC)nc3)c(=O)n([C@H]3CC[C@H](O)CC3)c2n1 [Compound 277] | 1.59
CCn1cc(CNC(=O)c2cc3c(C)nc(NC)nc3n(C3CCCC3)c2=O)cn1 [Compound 281] | 1200
Cc1nc(NCC(C)(C)O)nc2c1cc(-c1cccc(O)c1)c(=O)n2C1CCCC1 [Compound 114] | 110

I. Cc1nc(N)nc2c1cc(-c1ccc(N3CCCC3)nc1)c(=O)n2C1CCCC1 [Compound 258]
II. COc1ccc(-c2cc3c(C)nc(N)nc3n(CCC3CC3)c2=O)cn1 [Compound 233]
III. Cc1nc(N)nc2c1cc(Br)c(=O)n2C1CCOC1 (centres unmarked) [Compound 202]
List the 3 entries from lowest IC50 to highest IC50 value. Present the labels in the sequence the task asks for.
II, I, III
(II: 11 nM, I: 88 nM, III: 230 nM)

Reference source: patent US8633204B2
